PROCEDURE TEXT: E. coli acrAB mutant growth effects, primary screen, E. coli filamentation inducers, strain DRC39, OD650, 24 h (AID 1178);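 also: growth measured as culture turbidity by optical density at 650 nm; test concentration not given here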
CONDITION SUMMARY: higher = more signal, called active from +8 up or from −8 down
REPORTED PROPERTY: z-score
// no unit string in output, number only

Quick note, z-score for C[C@]12C(=O)N(CCCCCCO)[C@@H]3C(=O)N(c4ccc(Cl)cc4)CC=CC31O[C@@H]1/C=C\CCCOC(=O)C12 (stereo partly drawn) landed at -0.0299

Form: compound = COC(=O)[C@@]1(Cc2ccc(OC)cc2)[C@H]2c3cc(C(=O)N(C)C)n(CCc4c[nH]c5ccc(O)cc45)c3C[C@H]2CN1C(=O)c1ccccc1 ; z-score = -0.135

For record CN(C)C(=O)[C@]1(CCC(=O)OC(C)(C)C)N=C(c2ccc(OCCCO)cc2)O[C@@H]1c1ccccc1 the listed z-score is 0.0325

Just so you know, measured z-score for CN1C(=O)C2C(C1=O)C1C=C(c3ccc(CO)cc3)C2C(c2cccs2)N1Cc1cccc(OC(F)(F)F)c1 (stereo not drawn) came out at -0.383

Entry [N-]=[N+]=Nc1ccccc1[C@@H]1OC(c2ccc(OCCCO)cc2)=N[C@]1(CCS(=O)(=O)c1ccccc1)C(=O)NCCN1CCOCC1 ; z-score = 0.833

Briefly, z-score measured for C=C(CCCC)/C(=C/C[C@@H](OC(C)=O)c1ccc(CO)o1)c1cc(C(=O)OC)ccc1OC : -0.122

Just so you know, measured z-score for NCCCCCNC(=O)[C@@H]1C[C@@H]2C(=O)N[C@@H](CCCCN)C(=O)N2[C@@H]1c1cccc(OCCO)c1 came out at 0.928

Item: C=C(/C(=C/C[C@@H](OC(=O)c1ccncc1)c1ccccc1OCCO)c1cc(C(=O)OC)ccc1OC)C(C)C | z-score: 0.315

* * *

PROCEDURE TEXT: CREB reporter modulators under forskolin, primary screen, cell-based, PC12, CRE-LacZ reporter, forskolin-stimulated (AID 1146);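 also: PC12 cells with 6xCRE LacZ reporter stimulated by forskolin 10 µM; beta-galactosidase reporter signal reflecting CREB driven transcription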
CONDITION SUMMARY: luminescence, 4.5 h, higher = more signal, called active from +8 up or from −8 down
Consider the following compounds; for each one, report its z-score.
// no unit string in output, number only

Lab book: z-score of C=CCC(OC(C)=O)[C@@H]1[C@@H](N(Cc2cc3ccccc3o2)C(=O)c2ccc(C)cc2)c2cc(OCCCO)ccc2N1C(=O)Cc1ccc2ccccc2c1 (some centres not stated) noted as -0.072

Looking up COCCOC(=O)N1C(=O)[C@@]2(c3cc(C#CC4(O)CCCCCC4)ccc31)[C@H](C(N)=O)[C@H]1C(=O)O[C@H](c3ccccc3)[C@H](c3ccccc3)N1[C@@H]2c1ccccc1OCCO , I found its z-score recorded as 0.0643

Record O=C1c2ccccc2[C@](Cc2ccccc2I)(C(=O)NCc2ccccc2)[C@H](c2ccc(CO)cc2)N1C1CCCCC1 . Reported z-score: -0.183

Lab book: z-score of COc1ccc(NC(=O)O[C@H]2[C@H](OC(=O)Nc3ccc4c(c3)OCO4)[C@@H](OC(=O)Nc3ccc4c(c3)OCO4)[C@@H](OC)O[C@@H]2CO)cc1 noted as -0.559

Just so you know, measured z-score for NC(=O)N1C(=O)C2C(C1=O)C1C=C(CCCO)C2C(c2cccs2)N1Cc1cc2c(cc1Br)OCO2 (configuration not stated) came out at -0.298

Entry under test: NCCCCCCNC(=O)[C@H]1C[C@H]2C(=O)N[C@@H](Cc3ccccc3)C(=O)N2[C@H]1c1ccc(O)cc1 . Its z-score was -1.24

Sure, the documented z-score for COCCCNC(=O)[C@]1(Cc2ccccc2CN=[N+]=[N-])N=C(c2ccc(OCCCO)cc2)O[C@@H]1c1ccccc1 is -0.577

The values you see were collected from PubChem BioAssay.
